target: T1, VEGF165 (vascular endothelial cell growth factor, 165 isoform), recombinant from E. coli, refolded dimer (human, UniProt P15692-4 27-191, Example 1: about 4 AMCA coumarins per VEGF165, sites not given; Example 3 screen: biotinylated, sites not given); experiment: SPR
T1 construct: Tags from the pRSET vector are not mentioned; also called coumerin-VEGF; coumarin-labeled VEGF165
T1 sequence (P15692 other isoform, or with tags, fused parts or gaps limits assumed): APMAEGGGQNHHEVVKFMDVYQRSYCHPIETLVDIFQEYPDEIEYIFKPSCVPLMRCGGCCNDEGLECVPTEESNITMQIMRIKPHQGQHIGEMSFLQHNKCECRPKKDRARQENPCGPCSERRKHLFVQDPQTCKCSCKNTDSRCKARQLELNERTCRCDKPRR
Square brackets hold non-standard residues; d marks the D form. Ends that are not written are not given here. sY = N[C@@H](Cc1ccc(OS(=O)(=O)O)cc1)C(=O)O
OBSERVABLE: Kd (µM)
Give bare numbers, in µM.

(Q) Can you share its Kd? I mean this binder: [sY][sY]GG[sY]D[sY]G (not fully specified (N-terminus, C-terminus); printed as Y(SO3)Y(SO3)GGY(SO3)DY(SO3)G, Independently synthesized free peptide used in SPR) [Y(SO3)Y(SO3)GGY(SO3)DY(SO3)G]
(A) 0.14

Now for the binder whose Kd we want.
(Q) Can you share its Kd? I mean this binder: S[sY]D[sY]G (not fully specified (C-terminus); printed as SY(SO3)DY(SO3)G, Independently synthesized free peptide used in SPR) [SY(SO3)DY(SO3)G]
(A) 3.1
